Attribute: %Inh
- Test system: GCN2(Kin.Dom.2,S808G)
- Construct: gene EIF2AK4
- TEST_CONDITIONS: concentration: 1 μM, replicates: in singlicate; n = 1;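 also: KINOMEscan kinase panel screen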
REPORTED_METRIC: %Inh (%)

[[record]]
compound = "Cc1cccc(-c2cc(-c3c[nH]nc3-c3ccccn3)ccn2)c1 [GW679395]"
target_under_test = "GCN2(Kin.Dom.2,S808G)"
value_observed = 0

[[record]]
compound = "Cc1nn2c(=O)cc(N3CCOCC3)nc2n1Cc1cccc(Cl)c1Cl [GSK2342769]"
target_under_test = "GCN2(Kin.Dom.2,S808G)"
value_observed = 3

[[record]]
compound = "OCCCNc1nccc(-c2c(-c3cccc(C(F)(F)F)c3)nn3cc(C(F)(F)F)ccc23)n1 [GW630813]"
target_under_test = "GCN2(Kin.Dom.2,S808G)"
value_observed = 0


====

%Inh reference
- Test system: NEK10
- TEST_CONDITIONS: concentration: 1 μM, replicates: in singlicate; n = 1
REPORTED_METRIC: %Inh (%)

[[record]]
molecule = "CCn1c(-c2nonc2N)nc2ccccc21"
target_under_test = "NEK10"
reported_metric = "%Inh"
value_observed = 12

[[record]]
molecule = "COC(=O)c1c(-c2ccccc2)c2cc(Br)ccc2c(=O)n1Cc1ccc(NC(=O)CCC(=O)O)cc1"
target_under_test = "NEK10"
reported_metric = "%Inh"
value_observed = 0

[[record]]
molecule = "COc1ccc(Nc2nccc(N3CCC(NS(=O)(=O)c4ccc(NC(C)=O)cc4)C3)n2)cc1 (stereo not drawn)"
target_under_test = "NEK10"
reported_metric = "%Inh"
value_observed = 0

[[record]]
molecule = "Cc1c(Cn2c(C)nn3c(=O)cc(N4CCO[C@H](C)C4)nc23)cccc1C(F)(F)F"
target_under_test = "NEK10"
reported_metric = "%Inh"
value_observed = 6

[[record]]
molecule = "COc1cc2nccc(Nc3cccc(Oc4ccccc4)c3)c2cc1OC.Cl"
target_under_test = "NEK10"
reported_metric = "%Inh"
value_observed = 0

[[record]]
molecule = "Nc1n[nH]c2ncc(-c3ccccc3)cc12"
target_under_test = "NEK10"
reported_metric = "%Inh"
value_observed = 24

[[record]]
molecule = "COc1ccc(-c2cc3c(C)nc(N)nc3n([C@H]3CC[C@H](OCCO)CC3)c2=O)cn1"
target_under_test = "NEK10"
reported_metric = "%Inh"
value_observed = 22

[[record]]
molecule = "Cc1nnc(-c2ccc(C)c(-c3ccc(C(=O)O)cc3)c2)o1"
target_under_test = "NEK10"
reported_metric = "%Inh"
value_observed = 0

[[record]]
molecule = "Cc1cc(Nc2nc(-c3cccc(C)n3)nc3ccccc23)ccn1"
target_under_test = "NEK10"
reported_metric = "%Inh"
value_observed = 6


====

Let's look at some molecules and their measured %Inh.
- Tested on: ERBB3
- TEST_CONDITIONS: concentration: 1 μM, replicates: in singlicate; n = 1
REPORTED_METRIC: %Inh (%)

[[record]]
molecule = "COc1cc(Nc2nccc(N3CCC(NC(=O)C(C)c4ccc(Cl)cc4)C3)n2)cc(OC)c1OC (stereo not drawn) [GSK1379757]"
uom = "%"
value_observed = 0

[[record]]
molecule = "COc1ccc(CNC(=O)NC2CCN(c3ccnc(Nc4ccc(F)cc4)n3)C2)cc1 (stereo not drawn) [GSK1379706]"
uom = "%"
value_observed = 47

[[record]]
molecule = "COc1cc2nccc(Nc3cccc(Oc4ccccc4)c3)c2cc1OC.Cl [GW284543]"
uom = "%"
value_observed = 66


The values you see were collected from paper PMC5540273.
